# Tested on: U251 CNS
# Measurement Notes: NCI tumour cell line growth inhibition, 48 h

Molecule	TGI
O=C(Nc1nccs1)c1c(O)nc2sccn2c1=O	> 10 µM
CC(=N/N=C/c1ccccn1)/C(C)=N/N=C(C)/C(C)=N/N=C(C)/C(C)=N/N=C(C)/C(C)=N\N=C\c1ccccn1	> 100 µM
CN(C(=O)c1ccc(C(F)(F)F)cc1)c1ccc(Oc2ccc3c(c2)cc(C(=O)N2CCN(Cc4ccc(OC(F)F)cc4)CC2)n3C)nc1	> 100 µM
Cc1ccc(C(=C2Sc3ccccc3S2)C(=C2Sc3ccccc3S2)c2ccc(C)s2)s1	> 100 µM
CN(C)c1nc(=Nc2ccc(N=c3nc(N(C)C)ss3)cc2)ss1	> 49.8 µM
CS(=O)c1ncc2c(n1)-c1ccccc1OC2 (stereo not drawn)	> 100 µM
COc1cc(/C=C/c2cc(O)c(C(C)=O)c(O)c2)cc2c1O[C@]1(C)CC[C@@H](O)C(C)(C)[C@H]1C2	> 100 µM
COc1cc(/C=C/C(=O)CC(=O)/C=C/c2ccc(OC(=O)CCCCC3CCSS3)c(OC)c2)ccc1OC(=O)CCCCC1CCSS1 (stereo not drawn)	> 100 µM
NS(=O)(=O)c1cc(Cl)c(NC(=S)NC(=O)Nc2ccc(Cl)c(Cl)c2)c(Cl)c1	> 100 µM
CC(=O)Nc1nc(C#N)[nH]c1C#N	> 100 µM
OC(c1nc2ccccc2[nH]1)C(O)C(O)C(O)c1nc2ccccc2[nH]1 (stereo not drawn)	> 100 µM
COc1ccc(/C=C(/C#N)n2nnc3cccc(F)c32)cc1	> 100 µM
c1c[nH]c(-c2ccc(-c3ccc[nH]3)c3nsnc23)c1	> 66.5 µM

The measurements presented in this section are drawn from PubChem BioAssay (NCI).
